test system: triple-negative MDA-MB-231 human breast cancer cell line; experiment: cells; type: cell-based; conditions: Homo sapiens, MDA-MB-231, 24 h, read-out: Cytotoxicity, IC50, MDA-MB-231
Readout: IC50 (µM)
Expressed in µM, but write only the number.

As a guide, the following entries are already answered.
>  <Compound>
C=C(C)CCCC1(C)OC(=O)C23CCC4C(=CCC5C(C)(C)C(OC6OCC(OS(=O)(=O)O)C(O)C6OC6OC(CO)C(OC7OC(COS(=O)(=O)O)C(O)C(OC8OC(COS(=O)(=O)O)C(O)C(OC)C8O)C7O)C(O)C6O)CCC45C)C2(C)CC(OC(C)=O)C13 (centres unmarked) [djakonovioside E1]

>  <Value>
2.19

$$$$
>  <Compound>
COC1C(O)C(COS(=O)(=O)O)OC(OC2C(O)C(COS(=O)(=O)O)OC(OC3C(C)OC(OC4C(OC5CCC6(C)C7CCC8(C)C(C(C)(O)C(=O)CC=C(C)C)CCC8(C)C7=CCC6C5(C)C)OCC(OS(=O)(=O)O)C4O)C(OC4OCC(O)C(O)C4O)C3O)C2O)C1O (centres unmarked) [djakonovioside F1]

>  <Value>
20

$$$$

# input # lookup: triple-negative MDA-MB-231 human breast cancer cell line IC50, key = C=C(C)CCCC1(C)OC(=O)C23CCC4C(=CCC5C(C)(C)C(OC6OCC(OS(=O)(=O)O)C(O)C6OC6OCC(OC7OC(CO)C(O)C(OC8OC(CO)C(O)C(OC)C8O)C7O)C(O)C6OC6OCC(O)C(O)C6O)CCC45C)C2(C)CC(OC(C)=O)C13 (centres unmarked) [djakonovioside C1]
# output 7.67

# input # lookup: triple-negative MDA-MB-231 human breast cancer cell line IC50, key = C=C(C)CCCC1(C)OC(=O)C23CCC4C(=CCC5C(C)(C)C(OC6OCC(OS(=O)(=O)O)C(O)C6OC6OC(CO)C(OC7OC(CO)C(O)C(OC8OC(CO)C(O)C(OC)C8O)C7O)C(O)C6OC6OCC(O)C(O)C6O)CCC45C)C2(C)CC(OC(C)=O)C13 (centres unmarked) [okhotoside A2-1]
# output 12.6

Ref: paper PMC10744391
